B1: H2-Kb / E8 (parent)
chain 1: GDSVTQTEGLVTVTEGLPVKLNCTYQTTYLTIAFFWYVQYLNEAPQVLLKSSTDNKRTEHQGFHATLHKSSSSFHLQKSSAQLSDSALYYCALNTNTGKLTFGDGTVLTVKP
chain 2: EAAVTQSPRNKVAVTGGKVTLSCNQTNNHNNMYWYRQDTGHGLRLIHYSYGAGSTEKGDIPDGYKASRPSQENFSLILELATPSQTSVYFCASGDWGAGTGQLYFGEGSKLTVL
chain 3: not shown
chain 4: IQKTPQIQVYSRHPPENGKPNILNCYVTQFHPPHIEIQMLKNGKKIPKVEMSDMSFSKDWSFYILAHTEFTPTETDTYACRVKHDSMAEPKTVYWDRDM
chain 5: SIINFEKL

Variants of: B1
measurement.protocol: % of reporter cells activated (NFAT-GFP), raw; note: test concentration or dose not given here
experimental.setup: with E8; scale: % of reporter cells activated
Record MET whenever ratio to parent is at 0.1 or higher; record NOT MET when lower.

Please review the following examples before continuing.
# bool: ratio to parent of chain 5 F5R >= 0.1 MET

# bool: ratio to parent of chain 5 N4D >= 0.1 NOT MET

Kindly consider the entry below.
# bool: ratio to parent of chain 5 K7R >= 0.1 MET
